B1: Caulobacter ParB omega fusion; a variant is named by its letters at X, in order, B8GW30 (parent)
chain: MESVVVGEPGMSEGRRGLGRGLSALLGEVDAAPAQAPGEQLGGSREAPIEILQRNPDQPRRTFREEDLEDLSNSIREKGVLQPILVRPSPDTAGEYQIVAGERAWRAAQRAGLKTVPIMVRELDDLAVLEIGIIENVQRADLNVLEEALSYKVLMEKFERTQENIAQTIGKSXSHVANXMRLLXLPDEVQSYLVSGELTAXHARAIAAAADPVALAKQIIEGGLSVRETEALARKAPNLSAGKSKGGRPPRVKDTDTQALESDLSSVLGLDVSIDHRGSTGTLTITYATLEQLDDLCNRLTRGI

variants of: B1; assay: one-hybrid fitness for binding parS DNA (scaled: cognate 1, non-cognate 0); higher = stronger binding; conditions: with parS DNA site
In all, about 81,000 sequences were measured (“one-hybrid fitness for binding parS DNA”: median about -0.17, highest 2% from about 0.51 on). Only a selection was taken, and the highest values are over-represented in it overall.
Label y for high-side one-hybrid fitness for binding parS DNA (at or above 0.4) and n for low-side one-hybrid fitness for binding parS DNA (below it).

> print(dat)
     mut  class.assignment
 1  RYQG                 y
 2  RYQF                 n
 3  RQKG                 y
 4  RMAH                 n
 5  GYWS                 n
 6  RKVS                 y
 7  VVQN                 n
 8  TIGL                 n
 9  RYRG                 y
10  RYCN                 n
11  RQKN                 y
12  RVMS                 y
13  RYDG                 y
14  RATP                 n
15  QVLP                 n
16  RKVN                 n

Value source: a collection of fitness landscapes (doi:10.1016/j.celrep.2020.107928)
